Test system: chickweed (common chickweed, Stellaria media)
Experiment: Test C postemergence: chickweed
Type: in vivo
Conditions: 62 g ai/ha, scale 0 to 100 (0 no effect, 100 complete control)
Response field label: string, one of fulfilled (Plant response rating, Chickweed strictly below 60) or not fulfilled.

Consider the worked cases shown below.
test-smiles: FCc1nn(-c2ccc(F)cc2)nc1Oc1ccnc(C(F)(F)F)c1
qualitative-label: not fulfilled

test-smiles: COc1nn(-c2ccc(C(F)(F)F)cc2)nc1Cc1ccnc(C(F)F)c1
qualitative-label: not fulfilled

test-smiles: COc1nn(-c2ccc(C(F)(F)F)cc2)nc1Cc1ccnc(C(F)(F)F)c1
qualitative-label: not fulfilled

test-smiles: Cc1nn(-c2ccc(C(F)(F)F)cn2)nc1Oc1ccnc(C(F)(F)F)c1
qualitative-label: fulfilled

test-smiles: Cc1nn(-c2ccc(F)c(C(F)(F)F)c2)nc1Cc1ccnc(C(F)(F)F)c1
qualitative-label: not fulfilled

test-smiles: FC(F)(F)c1ccc(-n2nc(Cl)c(Cc3ccnc(C(F)(F)F)c3)n2)cc1
qualitative-label: fulfilled

test-smiles: CCOc1nn(-c2ccc(C(F)(F)F)cc2)nc1Cc1ccnc(C(F)(F)F)c1
qualitative-label: fulfilled

test-smiles: CCc1nn(-c2ccc(C(F)(F)F)cc2)nc1Cc1ccnc(C(F)(F)F)c1
qualitative-label: not fulfilled

test-smiles: CCCc1nn(-c2ccc(F)cc2F)nc1Oc1ccnc(C(F)(F)F)c1
qualitative-label: not fulfilled

test-smiles: CCc1nn(-c2ccc(C(F)(F)F)c(F)c2)nc1Oc1ccnc(C(F)(F)F)c1
qualitative-label: not fulfilled

Now take the following compound into account.
Please indicate whether the reported Plant response rating, Chickweed of Cc1nn(-c2ccc(C(F)(F)F)cn2)nc1Cc1cccc(C(F)(F)F)c1 is strictly below 60. not fulfilled

###

System: sedge, umbrella (small-flower umbrella sedge, Cyperus difformis)
Assay: Test C flooded paddy test: sedge, umbrella
Assay type: in vivo
Conditions: Flood (flooded paddy test), 250 g ai/ha; visual rating after 13 to 15 days, scale 0 to 100 (0 no effect, 100 complete control)
metric-name: Plant response rating, Sedge, Umbrella
Answers are plain numbers.

// worked examples, Plant response rating, Sedge, Umbrella included
compound: Cc1nn(-c2ccc(F)cc2)nc1Oc1cc(C(F)(F)F)nn1C
meas-value: 80
//
compound: Cc1nn(-c2ccc(F)cc2)nc1Cn1ccc(C(F)(F)F)n1
meas-value: 0
//
compound: COc1nn(-c2ccc(C(F)(F)F)cc2)nc1C(C)(O)c1ccnc(C(F)(F)F)c1 (stereo not drawn)
meas-value: 0
//
compound: Cc1nn(-c2ccc(C(F)(F)F)cc2)nc1Cn1c(Cl)nc(C(F)(F)F)c1Cl
meas-value: 0

# map each compound to its Plant response rating, Sedge, Umbrella
1. CCc1nn(-c2ccc(C(F)(F)F)cc2)nc1Cn1cnc(C(F)(F)F)n1
2. COc1nn(-c2ccc(C(F)(F)F)cc2)nc1Cn1cnc(C(F)(F)F)n1
3. Cc1nn(-c2ccc(C(F)F)cn2)nc1C(=O)c1cccc(C(F)(F)F)c1
4. CCc1nn(-c2ccc(C(F)(F)F)cc2)nc1Cn1cnc(C(F)(F)F)c1
5. Cc1nn(-c2ccc(C(F)(F)F)cc2)nc1Cn1cnc(C(F)(F)F)n1

1. 75
2. 65
3. 0
4. 50
5. 65

###

Would you kindly list Plant response rating, Nutsedge, Yellow for each of these compounds?
Tested on: nutsedge, yellow (yellow nutsedge, Cyperus esculentus)
Test: Test C pre-/postemergence: nutsedge, yellow
Format: in vivo
Details: Preemergence, 250 g ai/ha; scale 0 to 100, 0 no effect, 100 complete control
Numbers only.

compound: Cc1nn(-c2ccc(C(F)(F)F)cc2)nc1Oc1ccnc(C(F)(F)F)c1 [Compound 120]
Plant response rating, Nutsedge, Yellow: 0
//
compound: CCOc1nn(-c2ccc(C(F)(F)F)cc2)nc1Cc1ccnc(C(F)(F)F)c1 [Compound 164]
Plant response rating, Nutsedge, Yellow: 0
//
compound: Cc1nn(-c2ccc(F)cc2F)nc1Oc1ccnc(C(F)(F)F)c1 [Compound 146]
Plant response rating, Nutsedge, Yellow: 10
//
compound: Cc1nn(-c2ccc(C(F)(F)F)cn2)nc1Oc1ccnc(C(F)(F)F)c1 [Compound 23]
Plant response rating, Nutsedge, Yellow: 55
//
compound: CCOc1nn(-c2ccc(Cl)cc2)nc1Cc1ccnc(C(F)(F)F)c1 [Compound 188]
Plant response rating, Nutsedge, Yellow: 20
//
compound: FC(F)(F)COc1nn(-c2ccc(C(F)(F)F)cc2)nc1Cc1ccnc(C(F)(F)F)c1 [Compound 14]
Plant response rating, Nutsedge, Yellow: 0

Now look at this one.
What value of measured Plant response rating, Nutsedge, Yellow is listed for COc1nn(-c2cccc(F)c2)nc1Cc1ccnc(C(F)(F)F)c1 [Compound 139] ? 5
